- System: HCT-116
- protocol: NCI tumour cell line growth inhibition, 48 h
The source made the active and inactive calls. Rule as the data show it: active = GI50 up to about 1.1 µM and inactive = higher.
Entry note: the call must match one of 1 (yes) for active, 0 (no) for inactive

// below: answered compounds
compound: COc1ccc2c(=O)c(-c3cc4c(cc3OC)OCO4)coc2c1
className: 0 (no)
--
compound: [N-]=[N+]=Nc1ccc2c(c1)Sc1ccccc1N2CCCCN1CCN(Cc2ccc(C(=O)c3ccc(CSCC(N)C(=O)O)cc3)cc2)CC1 (stereo not given)
className: 0 (no)
--
compound: CCCCCCCCCCCCC/C=C/[C@@H](O)[C@H](COC1OC(CO)C(OC2OC(CO)C(O)C(OC3(C(=O)O)CC(O)C(NC(C)=O)C(C(O)C(O)CO)O3)C2O)C(O)C1O)N=[N+]=[N-] (stereo not given in full)
className: 0 (no)

From here, focus on the item given below.
Test call for this compound, please: COc1cc(/C=C2/C[C@H]3[C@@H]4CCC5=CC(=O)CC[C@]5(C)[C@H]4CC[C@]3(C)NC2=O)cc(OC)c1OC
0 (no)

Measured values drawn from ChEMBL document CHEMBL1201862 for this set.
